Study system: SHP2-C SH2;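 further: peptide library displayed on the E. coli surface as eCPX fusions, selected cells deep-sequenced, score is each peptide's frequency after selection divided by its frequency in the input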
Assay text: SH2 binding enrichment of the phosphorylated peptide, bacterial display (enrichment ratio); higher = better substrate or ligand; peptides without Tyr show the background
Note to self: values exactly at 1 are 1. So SH2 binding enrichment at or above 1 is 1, below is 0.

>>> qualitative_label("EFKDAYTFAAD [BRDT_Y335_K336T_YF]")
0
>>> qualitative_label("SREDIYKRNTE [PDE4DIP_Y45_I49T]")
0
>>> qualitative_label("KASGKYFAMKI [AKT3_Y173_YF]")
1
>>> qualitative_label("MIAIRYSHSRR [ACOXL_Y260_T255M]")
0
>>> qualitative_label("RLRVVYPWTQR [HBB_Y36_L33R]")
0
>>> qualitative_label("RHSGSYFVTSV [APC_Y2838_L2839F]")
0
>>> qualitative_label("FQNSLYAPDFS [FAM92A_Y226_R222Q_YF]")
0
>>> qualitative_label("CRPPFYHRNCM [HGD_Y334_F329C_YF]")
1
>>> qualitative_label("RLGDLYKEEMR [VIM_Y150_E151K]")
0
>>> qualitative_label("IHRWVYPLTPE [EIF2B5_Y319_R315H]")
1
>>> qualitative_label("EHIEFYELDKK [PMM2_Y145_R141H]")
0
>>> qualitative_label("HEVHIYENSGA [ARPC1B_Y35_K37N]")
1
>>> qualitative_label("CTTIHCNYMCN [TP53_Y234_Y234C]")
0
>>> qualitative_label("ITLKGYNLSNS [GNPTAB_Y728_K732N]")
0
>>> qualitative_label("IMAYFYMCDSA [CASD1_Y382_R386S]")
0
>>> qualitative_label("HAEERYGKELV [PSTPIP1_Y53_Q48H]")
0
